# test-context: cell viability/%
Where a SMILES comes first, the peptide text is derived from it. [ ]: non-standard residue; d: D form. The star is where a group is joined. NHCH2CH2OH = OCCN*; For = O=C*
Reported viability values follow for various compounds
Give a bare numeral; the unit % is implied.

// known answers, use as guide
compound	viability (%)
CC(C)C[C@@H](NC(=O)[C@H](C)NC(=O)[C@H](NC(=O)[C@H](C)NC(=O)CNC(=O)[C@@H](NC=O)C(C)C)C(C)C)C(=O)N[C@H](C(=O)N[C@@H](C(=O)N[C@@H](Cc1c[nH]c2ccccc12)C(=O)N[C@H](CC(C)C)C(=O)N[C@@H](Cc1c[nH]c2ccccc12)C(=O)N[C@@H](C(=O)N[C@@H](Cc1c[nH]c2ccccc12)C(=O)N[C@H](CC(C)C)C(=O)N[C@@H](Cc1c[nH]c2ccccc12)C(=O)NCCO)[C@H](C)O)C(C)C)C(C)C [compound 9177] (For-VGA[dV]A[dL]V[dV]W[dL]W[dT]W[dL]W-NHCH2CH2OH)	61.7
CC(C)C[C@@H](NC(=O)[C@H](C)NC(=O)CNC(=O)[C@@H](NC=O)C(C)C)C(=O)N[C@@H](C)C(=O)N[C@H](CC(C)C)C(=O)N[C@H](C(=O)N[C@@H](C(=O)N[C@@H](Cc1c[nH]c2ccccc12)C(=O)N[C@@H](C(=O)N[C@@H](Cc1c[nH]c2ccccc12)C(=O)N[C@H](CC(C)C)C(=O)N[C@@H](Cc1c[nH]c2ccccc12)C(=O)N[C@H](CC(C)C)C(=O)N[C@@H](Cc1c[nH]c2ccccc12)C(=O)NCCO)C(C)C)[C@H](C)O)C(C)C [compound 1631] (For-VGA[dL]A[dL]V[dT]W[dV]W[dL]W[dL]W-NHCH2CH2OH)	100
CC(C)C[C@@H](NC(=O)[C@H](C)NC(=O)[C@H](NC(=O)[C@H](C)NC(=O)CNC(=O)[C@@H](NC=O)C(C)C)C(C)C)C(=O)N[C@H](C(=O)N[C@H](CC(C)C)C(=O)N[C@@H](Cc1c[nH]c2ccccc12)C(=O)N[C@H](CC(C)C)C(=O)N[C@@H](Cc1c[nH]c2ccccc12)C(=O)N[C@H](CC(C)C)C(=O)N[C@@H](Cc1c[nH]c2ccccc12)C(=O)N[C@@H](C(=O)N[C@@H](Cc1c[nH]c2ccccc12)C(=O)NCCO)[C@H](C)O)C(C)C [compound 129] (For-VGA[dV]A[dL]V[dL]W[dL]W[dL]W[dT]W-NHCH2CH2OH)	100

Prompt: Entry under review: CC(C)C[C@@H](NC(=O)[C@H](C)NC(=O)[C@H](NC(=O)[C@H](C)NC(=O)CNC(=O)[C@@H](NC=O)C(C)C)C(C)C)C(=O)N[C@H](C(=O)N[C@@H](C(=O)N[C@@H](Cc1c[nH]c2ccccc12)C(=O)N[C@@H](C(=O)N[C@@H](Cc1c[nH]c2ccccc12)C(=O)N[C@@H](C(=O)N[C@@H](Cc1c[nH]c2ccccc12)C(=O)N[C@@H](C(=O)N[C@@H](Cc1c[nH]c2ccccc12)C(=O)NCCO)C(C)C)[C@H](C)O)C(C)C)C(C)C)C(C)C [compound 4258] (For-VGA[dV]A[dL]V[dV]W[dV]W[dT]W[dV]W-NHCH2CH2OH) . Reported viability?
Response: 85.9

Prompt: Please look up its viability: CC(C)C[C@@H](NC(=O)[C@H](Cc1c[nH]c2ccccc12)NC(=O)[C@H](NC(=O)[C@H](Cc1c[nH]c2ccccc12)NC(=O)[C@@H](CC(C)C)NC(=O)[C@H](Cc1c[nH]c2ccccc12)NC(=O)[C@@H](CC(C)C)NC(=O)[C@@H](NC(=O)[C@H](NC(=O)[C@H](C)NC(=O)[C@H](NC(=O)[C@H](C)NC(=O)CNC(=O)[C@@H](NC=O)C(C)C)C(C)C)[C@H](C)O)C(C)C)C(C)C)C(=O)N[C@@H](Cc1c[nH]c2ccccc12)C(=O)NCCO [compound 10686] (For-VGA[dV]A[dT]V[dL]W[dL]W[dV]W[dL]W-NHCH2CH2OH)
Response: 100

Prompt: Report viability for CC(C)C[C@@H](NC(=O)[C@H](Cc1c[nH]c2ccccc12)NC(=O)[C@H](NC(=O)[C@H](Cc1c[nH]c2ccccc12)NC(=O)[C@H](NC(=O)[C@@H](NC(=O)[C@H](NC(=O)[C@H](C)NC(=O)[C@H](NC(=O)[C@H](C)NC(=O)CNC(=O)[C@@H](NC=O)C(C)C)[C@H](C)O)C(C)C)C(C)C)C(C)C)[C@H](C)O)C(=O)N[C@@H](Cc1c[nH]c2ccccc12)C(=O)N[C@@H](C(=O)N[C@@H](Cc1c[nH]c2ccccc12)C(=O)NCCO)C(C)C [compound 12629] (For-VGA[dT]A[dV]V[dV]W[dT]W[dL]W[dV]W-NHCH2CH2OH) please.
Response: 100

Prompt: Can you look up the measured viability of CC(C)C[C@@H](NC(=O)[C@@H](NC(=O)[C@H](NC(=O)[C@H](C)NC(=O)[C@H](NC(=O)[C@H](C)NC(=O)CNC(=O)[C@@H](NC=O)C(C)C)[C@H](C)O)C(C)C)C(C)C)C(=O)N[C@@H](Cc1c[nH]c2ccccc12)C(=O)N[C@@H](C(=O)N[C@@H](Cc1c[nH]c2ccccc12)C(=O)N[C@@H](C(=O)N[C@@H](Cc1c[nH]c2ccccc12)C(=O)N[C@@H](C(=O)N[C@@H](Cc1c[nH]c2ccccc12)C(=O)NCCO)C(C)C)C(C)C)C(C)C [compound 3019] (For-VGA[dT]A[dV]V[dL]W[dV]W[dV]W[dV]W-NHCH2CH2OH) for me?
Response: 100

Prompt: Which viability reading was recorded for the compound CC(C)C[C@@H](NC(=O)[C@H](C)NC(=O)CNC(=O)[C@@H](NC=O)C(C)C)C(=O)N[C@@H](C)C(=O)N[C@@H](C(=O)N[C@H](C(=O)N[C@H](CC(C)C)C(=O)N[C@@H](Cc1c[nH]c2ccccc12)C(=O)N[C@H](CC(C)C)C(=O)N[C@@H](Cc1c[nH]c2ccccc12)C(=O)N[C@H](CC(C)C)C(=O)N[C@@H](Cc1c[nH]c2ccccc12)C(=O)N[C@@H](C(=O)N[C@@H](Cc1c[nH]c2ccccc12)C(=O)NCCO)[C@H](C)O)C(C)C)C(C)C [compound 1975] (For-VGA[dL]A[dV]V[dL]W[dL]W[dL]W[dT]W-NHCH2CH2OH) ?
Response: 100
